Molecular target: Bile acid receptor (Homo sapiens) (UniProt Q96RI1)
Sequence (whole entry): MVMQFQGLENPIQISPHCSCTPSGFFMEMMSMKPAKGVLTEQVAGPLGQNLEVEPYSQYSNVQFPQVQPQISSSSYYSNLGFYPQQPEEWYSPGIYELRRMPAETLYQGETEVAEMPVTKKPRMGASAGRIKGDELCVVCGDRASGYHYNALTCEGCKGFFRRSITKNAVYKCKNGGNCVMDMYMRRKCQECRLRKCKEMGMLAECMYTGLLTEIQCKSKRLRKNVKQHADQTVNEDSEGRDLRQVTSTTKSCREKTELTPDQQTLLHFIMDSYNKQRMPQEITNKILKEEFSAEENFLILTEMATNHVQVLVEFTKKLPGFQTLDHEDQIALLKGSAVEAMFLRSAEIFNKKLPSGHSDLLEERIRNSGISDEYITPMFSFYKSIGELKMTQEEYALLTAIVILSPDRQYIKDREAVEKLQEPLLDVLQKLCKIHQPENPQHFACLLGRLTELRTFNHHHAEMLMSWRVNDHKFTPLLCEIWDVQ
Experiment: Agonistic activity at FXR in HEK293 cells at 100 uM by GAL4 transactivation activity
Type: functional, cell-based
Calls of active or inactive are those of the source. The rule behind the calls is not given here.
QUANTITY: Activity

Example cases with answers are listed next.
- SMILES NOTATION: "O=C(O)c1cccc(/C=C/c2ccc(OCc3c(-c4c(Cl)cccc4Cl)noc3-c3ccccc3)cc2Cl)c1"
  Activity: "inactive"
- SMILES NOTATION: "C/C=C1\\C(=O)C[C@H]2[C@@H]3CCC4=CC(=O)CC[C@]4(C)[C@H]3CC[C@]12C"
  Activity: "inactive"
- SMILES NOTATION: "O=C(O)c1cccc(/C=C/c2ccc(OCc3c(-c4c(Cl)cccc4Cl)noc3-c3ccc4ccccc4c3)cc2Cl)c1"
  Activity: "inactive"
- SMILES NOTATION: "CC(C)c1onc(-c2ccc(-c3ccccc3)cc2)c1COc1ccc(/C=C/c2cccc(C(=O)O)c2)c(Cl)c1"
  Activity: "inactive"
- SMILES NOTATION: "O=C(O)c1cccc(/C=C/c2ccc(OCc3c(-c4c(Cl)cccc4Cl)noc3-c3ccc(-c4ccccc4)cc3)cc2Cl)c1"
  Activity: "inactive"

Record Activity per entry; entries follow.
1. CC(C)c1onc(-c2ccc3ccccc3c2)c1COc1ccc(/C=C/c2cccc(C(=O)O)c2)c(Cl)c1
2. O=C(O)c1cccc(NC(=O)c2ccc(OCc3c(-c4c(Cl)cccc4Cl)noc3-c3ccc4ccccc4c3)cc2Cl)c1
3. O=C(O)c1cccc(NC(=O)c2ccc(OCc3c(-c4c(Cl)cccc4Cl)noc3-c3ccc(-c4ccccc4)cc3)cc2Cl)c1

Ans:
1: inactive; 2: inactive; 3: inactive
